Tested on: Vero E6 infected with SARS-CoV-2
Test: inhibition of SARS-CoV-2 cytopathic effect; higher = more antiviral protection, active = above 15
Conditions: 8.33 nM; 48 h
Listed here are compounds together with their documented inhibition of SARS-CoV-2 cytopathic effect.
Lab book: enter the figure in %, no units written.

{"compound": "COCC(=O)O[C@]1(CCN(C)CCCc2nc3ccccc3[nH]2)CCc2cc(F)ccc2[C@@H]1C(C)C [mibefradil]", "number": 0.22}
{"compound": "Cc1cc(S(=O)(=O)O)c2c(C)ccc(C(C)C)cc1-2 [sodium-gualenate]", "number": -5.96}
{"compound": "C[C@]12CC[C@@H]3c4ccc(OS(=O)(=O)O)cc4CC[C@H]3[C@@H]1CCC2=O [estropipate]", "number": 1.92}

Given the entry O=C1[C@@H]2[C@H]3CC[C@H](C3)[C@@H]2C(=O)N1CCCCN1CCN(c2ncccn2)CC1 [tandospirone] , report its measured inhibition of SARS-CoV-2 cytopathic effect.
0.1

Data origin: the supplement of paper PMC13380429
